Attribution: the kinase profiling compilation of Christmann-Franck et al. (2016)

I'd appreciate it if you could supply residual activity values for the items below.
Target Desc: STK3 (human) (UniProt Q13188)
Sequence (Q13188 whole entry, looked up): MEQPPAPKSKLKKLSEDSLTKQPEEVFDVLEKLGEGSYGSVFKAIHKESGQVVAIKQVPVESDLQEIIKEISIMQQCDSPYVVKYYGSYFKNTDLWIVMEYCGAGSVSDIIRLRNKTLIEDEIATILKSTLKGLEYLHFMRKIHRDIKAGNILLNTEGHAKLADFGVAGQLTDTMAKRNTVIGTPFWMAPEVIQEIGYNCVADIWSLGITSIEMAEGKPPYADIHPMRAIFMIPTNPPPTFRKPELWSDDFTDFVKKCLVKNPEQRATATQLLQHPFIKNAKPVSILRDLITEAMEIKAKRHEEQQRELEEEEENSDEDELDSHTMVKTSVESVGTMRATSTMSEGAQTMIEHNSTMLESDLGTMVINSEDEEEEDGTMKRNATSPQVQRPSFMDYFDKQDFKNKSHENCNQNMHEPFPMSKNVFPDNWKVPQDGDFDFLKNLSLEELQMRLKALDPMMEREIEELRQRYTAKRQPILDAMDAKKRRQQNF
Assay Method Text: radiometric filter-binding kinase assay
Conditions Used: compound 10.0 µM
Write the value in % as a bare number.

Recorded residual activity for NC(=O)c1ccc(-c2ccc(Oc3cncc4sc(-c5nn[nH]n5)cc34)cc2)cc1 , please?
75

Recorded residual activity for CCc1cncnc1N1CCN(Cc2nc3cc(C(F)(F)F)ccc3[nH]2)CC1 , please?
77

Recorded residual activity for O=c1c(O)c(-c2ccc(O)c(O)c2)oc2cc(O)c(O)c(O)c12 , please?
9

Recorded residual activity for N#Cc1c(O)c2c(-c3ccc(-c4ccccc4O)cc3)csc2[nH]c1=O , please?
60

Recorded residual activity for NC(=O)c1cc(-c2ccnc(NC3CCCCC3)c2)nc(N2CCNCC2)c1 , please?
98

Recorded residual activity for Cc1cccc(Nc2nn(C)c3ncnc(N)c23)c1 , please?
102

Recorded residual activity for O=C(O)c1cc(N=Nc2ccc(S(=O)(=O)Nc3ccccn3)cc2)ccc1O , please?
92

Recorded residual activity for Cc1nc(-c2ccc(OCC(C)C)c(C#N)c2)sc1C(=O)O , please?
75

Recorded residual activity for COc1cc2ncn(-c3cc(OCc4ccccc4S(C)(=O)=O)c(C#N)s3)c2cc1OC , please?
7

Recorded residual activity for Cc1cc(SCc2sc(-c3ccc(C(F)(F)F)cc3)nc2C)ccc1OCC(=O)O , please?
122

Recorded residual activity for Oc1ccc(/C=C/c2cc(O)cc(O)c2)cc1 , please?
69

---

Target Desc: PAK6 (human)
Assay Method Text: radiometric filter-binding kinase assay
Conditions Used: compound 10.0 µM
I'd appreciate it if you could supply residual activity values for the items below.
Write the value in % as a bare number.

Recorded residual activity for COc1cc2ncn(-c3cc(OCc4ccccc4S(C)(=O)=O)c(C#N)s3)c2cc1OC , please?
67

Recorded residual activity for Cc1ccc2c(c1)C(=O)[C@@]1(O)CCN(c3ccccc3)C1=N2 , please?
83

Recorded residual activity for O=C(NOC[C@H](O)CO)c1ccc(F)c(F)c1Nc1ccc(I)cc1Cl , please?
105

Recorded residual activity for O=C(Nc1ccccc1-c1cn2c(CN3CCNCC3)csc2n1)c1cnc2ccccc2n1 , please?
87

Recorded residual activity for NS(=O)(=O)OC[C@@H]1C[C@@H](n2ccc3c(N[C@H]4CCc5ccccc54)ncnc32)C[C@@H]1O , please?
91

Recorded residual activity for FC(F)(F)c1ccc(-c2ccc(Oc3cncc4sc(-c5nn[nH]n5)cc34)cc2)cc1 , please?
110

Recorded residual activity for Cc1ccc(Sc2cnc(Nc3cccc(Br)n3)s2)cc1C(=O)N1CCN(C(=O)CN)CC1 , please?
27

Recorded residual activity for COC(=O)/C=C/C(=O)OC , please?
90

Recorded residual activity for Oc1ccc(/C=C/c2cc(O)cc(O)c2)cc1 , please?
106

Recorded residual activity for O=c1c(O)c(-c2ccc(O)c(O)c2)oc2cc(O)c(O)c(O)c12 , please?
60

---

Target Desc: MAP3K1 (human) (UniProt Q13233)
Sequence (Q13233 whole entry, looked up): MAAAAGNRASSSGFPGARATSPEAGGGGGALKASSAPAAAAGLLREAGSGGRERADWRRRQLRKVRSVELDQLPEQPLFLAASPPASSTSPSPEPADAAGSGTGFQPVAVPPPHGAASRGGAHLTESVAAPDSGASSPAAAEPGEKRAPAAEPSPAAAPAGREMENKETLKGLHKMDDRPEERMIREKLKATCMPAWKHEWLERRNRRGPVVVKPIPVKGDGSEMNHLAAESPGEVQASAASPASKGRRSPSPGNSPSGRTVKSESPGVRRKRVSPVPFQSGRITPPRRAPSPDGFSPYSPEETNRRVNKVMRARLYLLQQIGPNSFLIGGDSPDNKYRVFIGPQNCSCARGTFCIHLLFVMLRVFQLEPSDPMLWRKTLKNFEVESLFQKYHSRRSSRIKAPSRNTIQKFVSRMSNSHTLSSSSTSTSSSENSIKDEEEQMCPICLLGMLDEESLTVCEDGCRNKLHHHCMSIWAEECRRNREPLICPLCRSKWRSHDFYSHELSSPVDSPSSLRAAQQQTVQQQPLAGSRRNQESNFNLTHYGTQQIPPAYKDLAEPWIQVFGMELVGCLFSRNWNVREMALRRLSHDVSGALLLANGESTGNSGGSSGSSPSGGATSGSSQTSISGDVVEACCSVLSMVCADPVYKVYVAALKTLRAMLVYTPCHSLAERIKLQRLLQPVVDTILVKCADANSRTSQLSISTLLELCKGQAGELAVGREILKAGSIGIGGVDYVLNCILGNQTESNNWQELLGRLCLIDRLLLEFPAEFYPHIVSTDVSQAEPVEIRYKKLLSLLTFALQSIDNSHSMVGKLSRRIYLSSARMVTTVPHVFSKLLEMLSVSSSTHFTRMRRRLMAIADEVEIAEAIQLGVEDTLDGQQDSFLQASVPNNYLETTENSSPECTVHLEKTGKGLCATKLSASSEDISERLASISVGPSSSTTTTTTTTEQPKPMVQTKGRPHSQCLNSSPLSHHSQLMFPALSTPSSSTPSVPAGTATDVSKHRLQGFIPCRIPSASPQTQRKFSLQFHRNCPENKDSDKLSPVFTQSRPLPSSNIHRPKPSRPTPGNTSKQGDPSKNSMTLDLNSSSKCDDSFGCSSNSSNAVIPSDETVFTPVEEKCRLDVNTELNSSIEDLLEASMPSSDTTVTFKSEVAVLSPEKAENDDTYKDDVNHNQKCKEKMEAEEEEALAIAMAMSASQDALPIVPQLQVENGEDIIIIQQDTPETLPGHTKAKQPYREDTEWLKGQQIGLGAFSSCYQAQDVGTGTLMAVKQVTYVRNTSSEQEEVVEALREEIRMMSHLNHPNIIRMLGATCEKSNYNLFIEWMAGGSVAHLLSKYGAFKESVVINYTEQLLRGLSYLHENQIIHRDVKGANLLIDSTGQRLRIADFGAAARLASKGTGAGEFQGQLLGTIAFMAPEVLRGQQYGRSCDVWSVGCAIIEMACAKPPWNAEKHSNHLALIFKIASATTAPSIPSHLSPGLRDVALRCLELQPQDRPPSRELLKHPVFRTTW
Assay Method Text: radiometric filter-binding kinase assay
Conditions Used: compound 0.1 µM
Measurement Kind: residual activity (%)
Write the value in % as a bare number.

Record lookup: for MAP3K1 (human) (UniProt Q13233), what residual activity belongs to CN1CCN(CCOc2cc(OC3CCOCC3)c3c(Nc4c(Cl)ccc5c4OCO5)ncnc3c2)CC1 ?
84

Record lookup: for MAP3K1 (human) (UniProt Q13233), what residual activity belongs to COc1ccc(-n2ncc3cnc(Nc4cc(OC)c(OC)c(OCCCN5CCN(C)CC5)c4)nc32)cc1 ?
103

Record lookup: for MAP3K1 (human) (UniProt Q13233), what residual activity belongs to COc1cc(O)c2c(c1)/C=C/C[C@H](O)[C@H](O)C(=O)/C=C\C[C@H](C)OC2=O ?
107

Record lookup: for MAP3K1 (human) (UniProt Q13233), what residual activity belongs to CC1=C(CO)C(=O)O[C@@H]([C@@H](C)[C@H]2CC[C@H]3[C@@H]4C[C@H]5O[C@]56[C@@H](O)C=CC(=O)[C@]6(C)C4CC[C@]23C)C1 (stereo partly drawn) ?
112

Record lookup: for MAP3K1 (human) (UniProt Q13233), what residual activity belongs to Cc1ccc(-c2ccc3c(ccc4sc5c(c43)NC[C@@H](C)NC5=O)n2)cn1 ?
102

Record lookup: for MAP3K1 (human) (UniProt Q13233), what residual activity belongs to COc1cc(O)c2c(c1)[C@H]1OC1C[C@H](O)[C@H](O)C(=O)/C=C\C[C@H](C)OC2=O (stereo partly drawn) ?
101

Record lookup: for MAP3K1 (human) (UniProt Q13233), what residual activity belongs to Cc1cccc(-c2nn(C(=S)Nc3ccccc3)cc2-c2ccnc3ccccc23)n1 ?
130

Record lookup: for MAP3K1 (human) (UniProt Q13233), what residual activity belongs to O=C(O)c1ccc(-c2c[nH]c3ncc(-c4ccccc4)cc23)cc1C1CCCC1 ?
92
